experiment: Stability of the compound assessed as retention of lactone group in phosphate buffer at pH 7 after 8 hrs by HPLC analysis
Assay type: physicochemical
conditions: phosphate buffer, pH 7; read-out: Stability
assay.metric: remaining at 8 h (%)
Note: unit % is implicit; provide only the numeric part.

(Q) Provide measured remaining at 8 h value, entry: "CC[C@]1(O)c2cc3n(c(=O)c2COC(=O)[C@@H]1OC(C)=O)Cc1cc2cc4c(cc2nc1-3)OCCO4"
(A) 90
